target: Mu-type opioid receptor (Cavia porcellus, UniProt P97266); assay: Binding affinity to Opioid receptor mu 1 by competitive inhibition of radioligand [3H]DAMGO using cloned receptors transiently expressed on CHO cells; type: cell-based
Threshold check on Ki: strictly below 8 nM is condition met; on or above 8 nM is condition not met.

# Compound, Assayed system, Qualitative label
records = [
    ("CC(C)C[C@H](NC(=O)[C@H](CCCCN)NC(=O)[C@@H]1CCCN1C(=O)[C@H](CCCNC(=N)N)NC(=O)[C@H](CN)NC(=O)[C@H](CCCNC(=N)N)NC(=O)[C@H](CCCNC(=N)N)NC(=O)[C@@H](CC(=O)O)NC(=O)[C@H](Cc1ccccc1)NC(=O)CNC(=O)CNC(=O)[C@@H](N)Cc1ccc(O)cc1)C(=O)N[C@@H](CCCCN)C(N)=O", "Mu-type opioid receptor (Cavia porcellus, UniProt P97266)", "condition not met"),
    ("CC[C@H](C)[C@H](NC(=O)[C@H](CCCNC(=N)N)NC(=O)[C@H](CCCNC(=N)N)NC(=O)[C@H](CC(C)C)NC(=O)[C@H](Cc1ccccc1)NC(=O)[C@@H](CC(=O)O)NC(=O)CNC(=O)[C@@H](N)Cc1ccc(O)cc1)C(=O)N[C@@H](CCCNC(=N)N)C(=O)N1CCC[C@H]1C(=O)N[C@@H](CCCCN)C(=O)N[C@@H](CC(C)C)C(=O)N[C@@H](CCCCN)C(N)=O", "Mu-type opioid receptor (Cavia porcellus, UniProt P97266)", "condition not met"),
    ("CC[C@H](C)[C@H](NC(=O)[C@H](CCCNC(=N)N)NC(=O)[C@H](CCCNC(=N)N)NC(=O)[C@@H](CC(=O)O)NC(=O)[C@H](Cc1ccccc1)NC(=O)CNC(=O)CNC(=O)[C@@H](N)Cc1ccc(O)cc1)C(=O)N[C@@H](CCCNC(=N)N)C(=O)N1CCC[C@H]1C(=O)N[C@@H](CCCCN)C(=O)N[C@@H](CC(C)C)C(=O)N[C@@H](CCCCN)C(N)=O", "Mu-type opioid receptor (Cavia porcellus, UniProt P97266)", "condition met"),
    ("CC[C@H](C)[C@@H]1NC(=O)[C@H](CCCNC(=N)N)NC(=O)[C@H](NC(=O)[C@H](CC(C)C)NC(=O)[C@H](Cc2ccccc2)NC(=O)CNC(=O)CNC(=O)[C@@H](N)Cc2ccc(O)cc2)CC(=O)NCC[C@@H](C(=O)N2CCC[C@H]2C(=O)N[C@@H](CCCCN)C(=O)N[C@@H](CC(C)C)C(=O)N[C@@H](CCCCN)C(N)=O)NC1=O", "Mu-type opioid receptor (Cavia porcellus, UniProt P97266)", "condition met"),
    ("CC(C)C[C@H](NC(=O)[C@H](CCCCN)NC(=O)[C@@H]1CCCN1C(=O)[C@H](CCCNC(=N)N)NC(=O)[C@@H]1CCCNC(=O)C[C@@H](NC(=O)[C@H](Cc2ccccc2)NC(=O)CNC(=O)CNC(=O)[C@@H](N)Cc2ccc(O)cc2)C(=O)N[C@@H](CCCNC(=N)N)C(=O)N[C@@H](CCCNC(=N)N)C(=O)N1)C(=O)N[C@@H](CCCCN)C(N)=O", "Mu-type opioid receptor (Cavia porcellus, UniProt P97266)", "condition not met"),
]

---

biological target: UniProt:P41144; test: Binding affinity to Opioid receptor kappa 1 by competitive inhibition of radioligand [3H]diprenorphine using cloned receptors transiently expressed on CHO cells; type: cell-based

# Compound, Ki (nM)
rows = [
    ("CC[C@H](C)[C@@H]1NC(=O)[C@H](CCCNC(=N)N)NC(=O)[C@H](NC(=O)[C@H](CC(C)C)NC(=O)[C@H](Cc2ccccc2)NC(=O)CNC(=O)CNC(=O)[C@@H](N)Cc2ccc(O)cc2)CC(=O)NCCC[C@@H](C(=O)N2CCC[C@H]2C(=O)N[C@@H](CCCCN)C(=O)N[C@@H](CC(C)C)C(=O)N[C@@H](CCCCN)C(N)=O)NC1=O", 1.5),
    ("CC(C)C[C@H](NC(=O)[C@H](CCCCN)NC(=O)[C@@H]1CCCN1C(=O)[C@H](CCCNC(=N)N)NC(=O)[C@@H]1CCNC(=O)C[C@@H](NC(=O)[C@H](Cc2ccccc2)NC(=O)CNC(=O)CNC(=O)[C@@H](N)Cc2ccc(O)cc2)C(=O)N[C@@H](CCCNC(=N)N)C(=O)N[C@@H](CCCNC(=N)N)C(=O)N1)C(=O)N[C@@H](CCCCN)C(N)=O", 14),
    ("CC(C)C[C@H](NC(=O)[C@H](CCCCN)NC(=O)[C@@H]1CCCN1C(=O)[C@H](CCCNC(=N)N)NC(=O)[C@@H]1CCCNC(=O)C[C@@H](NC(=O)[C@H](Cc2ccccc2)NC(=O)CNC(=O)CNC(=O)[C@@H](N)Cc2ccc(O)cc2)C(=O)N[C@@H](CCCNC(=N)N)C(=O)N[C@@H](CCCNC(=N)N)C(=O)N1)C(=O)N[C@@H](CCCCN)C(N)=O", 12),
    ("CC[C@H](C)[C@H](NC(=O)[C@H](CCCNC(=N)N)NC(=O)[C@@H](CC(=O)O)NC(=O)[C@H](CC(C)C)NC(=O)[C@H](Cc1ccccc1)NC(=O)CNC(=O)CNC(=O)[C@@H](N)Cc1ccc(O)cc1)C(=O)N[C@@H](CCCNC(=N)N)C(=O)N1CCC[C@H]1C(=O)N[C@@H](CCCCN)C(=O)N[C@@H](CC(C)C)C(=O)N[C@@H](CCCCN)C(N)=O", 8),
]
